molecular target: human recombinant Monoacylglycerol Lipase (Homo sapiens); assay: MAGL enzymatic assay (IC50; 7-HCA substrate added at T=0 min or T=30 min); format: biochemical; conditions: MAGL (T = 30 min) IC50, substrate 7-HCA added after 30 minute incubation (T=30 min); geometric mean of 2-5 determinations unless otherwise indicated
Sequence (Q99685 whole entry): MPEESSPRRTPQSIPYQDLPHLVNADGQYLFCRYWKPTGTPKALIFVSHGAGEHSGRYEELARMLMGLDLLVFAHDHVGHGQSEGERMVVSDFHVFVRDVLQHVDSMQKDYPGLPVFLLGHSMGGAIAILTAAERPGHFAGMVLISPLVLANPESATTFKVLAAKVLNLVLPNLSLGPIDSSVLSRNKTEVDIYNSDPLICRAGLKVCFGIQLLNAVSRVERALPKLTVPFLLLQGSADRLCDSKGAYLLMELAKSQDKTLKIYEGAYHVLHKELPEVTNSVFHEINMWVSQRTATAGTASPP
Measured quantity: pIC50
Scale for pIC50: -log10 of concentration given in mol/L; no unit attached.

Check out these entries, answers already filled in.
- Molecule: "COc1cc(C2CC3(CCN(C(=O)O[C@H](CO)C(F)(F)F)CC3)C2)ccn1 [Example 47]"
  pIC50: 8.70
- Molecule: "O=C(O[C@H](CO)C(F)(F)F)N1CCC2(CCC(n3cc(C(F)(F)F)cn3)CO2)CC1 (single isomer, unassigned) [Example 69]"
  pIC50: 9.00
- Molecule: "CN(C(=O)C(C)(C)C)C1CC2(CCN(C(=O)O[C@H](CO)C(F)(F)F)CC2)C1 [Example 42]"
  pIC50: 9.40

In the following, a different molecule is considered.
// pIC50 lookup, key: O=C(O[C@H](CO)C(F)(F)F)N1CCC2(CC1)CC(c1ccc(C(F)F)cn1)C2 [Example 48]
8.70
